Entry source: ChEMBL document CHEMBL3046569

- experiment: Therapeutic index, ratio of IC50 for human H9 cells to EC50 for HIV1
- Type: cell-based
- conditionParameters: h9
Where pTI equals or exceeds -3, the correct label is yes; where it does not, the label is no.

compound=C=C(C)[C@@H]1CC[C@]2(CO)CC[C@]3(C)[C@H](CC[C@@H]4[C@@]5(C)CC[C@H](O)C(C)(C)[C@@H]5CC[C@]43C)[C@@H]12 category=yes
compound="C=C(C)[C@@H]1CC[C@]2(COC(=O)CC(C)CC(=O)O)CC[C@]3(C)[C@H](CC[C@@H]4[C@@]5(C)CC[C@H](OC(=O)CC(C)CC(=O)O)C(C)(C)[C@@H]5CC[C@]43C)[C@@H]12 (stereo not given in full)" category=no
compound="C=C(C)[C@@H]1CC[C@]2(COC(=O)CC(C)(CC)CC(=O)O)CC[C@]3(C)[C@H](CC[C@@H]4[C@@]5(C)CC[C@H](OC(=O)CC(C)(CC)CC(=O)O)C(C)(C)[C@@H]5CC[C@]43C)[C@@H]12 (stereo not given in full)" category=no
compound=C=C(COC(=O)CC(C)(C)CC(=O)O)[C@@H]1CC[C@]2(COC(=O)CC(C)(C)CC(=O)O)CC[C@]3(C)[C@H](CC[C@@H]4[C@@]5(C)CC[C@H](OC(=O)CC(C)(C)CC(=O)O)C(C)(C)[C@@H]5CC[C@]43C)[C@@H]12 category=yes
compound=CC(C)[C@@H]1CC[C@]2(C(=O)O)CC[C@]3(C)[C@H](CC[C@@H]4[C@@]5(C)CC[C@H](OC(=O)COCC(=O)O)C(C)(C)[C@@H]5CC[C@]43C)[C@@H]12 category=no
